What follows is a collection of IC50 values obtained with Poly [ADP-ribose] polymerase 1 (Homo sapiens).
Sequence (P09874 whole entry): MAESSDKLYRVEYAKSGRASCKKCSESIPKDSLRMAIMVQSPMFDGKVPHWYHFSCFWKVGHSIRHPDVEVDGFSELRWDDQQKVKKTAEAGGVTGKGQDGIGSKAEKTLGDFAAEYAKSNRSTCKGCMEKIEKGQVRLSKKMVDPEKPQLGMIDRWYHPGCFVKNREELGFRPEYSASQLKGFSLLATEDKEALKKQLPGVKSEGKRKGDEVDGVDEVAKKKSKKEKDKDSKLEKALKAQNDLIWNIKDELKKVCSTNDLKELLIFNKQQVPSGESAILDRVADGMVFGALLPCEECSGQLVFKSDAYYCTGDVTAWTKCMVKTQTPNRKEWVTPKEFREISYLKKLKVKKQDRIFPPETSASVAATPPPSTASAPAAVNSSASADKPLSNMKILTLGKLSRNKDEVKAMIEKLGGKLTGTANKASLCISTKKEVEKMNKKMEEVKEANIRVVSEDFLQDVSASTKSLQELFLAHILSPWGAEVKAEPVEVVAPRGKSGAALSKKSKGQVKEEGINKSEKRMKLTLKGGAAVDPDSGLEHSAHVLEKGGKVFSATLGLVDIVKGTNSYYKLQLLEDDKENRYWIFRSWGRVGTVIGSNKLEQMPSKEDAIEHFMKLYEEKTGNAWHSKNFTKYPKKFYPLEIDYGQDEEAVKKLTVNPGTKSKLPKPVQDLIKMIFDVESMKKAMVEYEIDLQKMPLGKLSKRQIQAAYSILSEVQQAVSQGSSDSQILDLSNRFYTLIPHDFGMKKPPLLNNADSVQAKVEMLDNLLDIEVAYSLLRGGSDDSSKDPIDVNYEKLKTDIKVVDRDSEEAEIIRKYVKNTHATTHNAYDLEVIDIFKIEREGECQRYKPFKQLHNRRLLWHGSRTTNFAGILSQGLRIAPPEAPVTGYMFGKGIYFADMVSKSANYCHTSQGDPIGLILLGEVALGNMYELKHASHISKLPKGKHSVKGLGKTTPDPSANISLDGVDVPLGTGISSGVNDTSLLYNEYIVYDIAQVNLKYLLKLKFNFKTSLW
Answer with a number only, understood to be in nM.

CN1CCC[C@@]1(C)c1nc2c(C(N)=O)c(F)ccc2[nH]1 = 21.7

# ---- query compound ----
Task: Entry NC(=O)c1c(F)ccc2[nH]c(-c3ccc(N4CCOCC4)cc3)nc12 : reported IC50 = ?
Result: 21.8
